- TESTED_SYSTEM: LRRK2 G2019S (Homo sapiens, UniProt Q5S007, G2019S)
- PROTOCOL_SUMMARY: KINOMEscan competition binding assay (Eurofins DiscoverX)
- CONDITION_SET: competition with active-site directed ligand, duplicates
QUANTITY: Kd

Enquiry: For O=C1Nc2ccc(I)cc2/C1=C/c1cc(Br)c(O)c(Br)c1 [GW 5074] , what is its reported Kd?
Return: 0.79 µM

Enquiry: For O=C1Nc2ccc(Cl)cc2[C@@](C#CC2CC2)(C(F)(F)F)O1 [Efavirenz] , what is its reported Kd?
Return: > 100 µM

Enquiry: For Fc1ccc([C@@H]2CCNC[C@H]2COc2ccc3c(c2)OCO3)cc1 [Paroxetine] , what is its reported Kd?
Return: > 100 µM

Enquiry: For CCCc1nc(C)c2c(=O)[nH]c(-c3cc(S(=O)(=O)N4CCN(CC)CC4)ccc3OCC)nn12 [Vardenafil] , what is its reported Kd?
Return: > 100 µM
